src = patent US20190330346A1

biological target: T1, human PD-1 (human, UniProt Q15116 25-167); test: SPR, multiple-cycle, crude Fab from E. coli; antigen form not stated
T1 construct: The immunogen was PD1/Fc (Leu25-Gln167 fused to human IgG1 Pro100-Lys330); also called huPD-1; hPD-1
T1 sequence (Q15116 25-167 limits assumed): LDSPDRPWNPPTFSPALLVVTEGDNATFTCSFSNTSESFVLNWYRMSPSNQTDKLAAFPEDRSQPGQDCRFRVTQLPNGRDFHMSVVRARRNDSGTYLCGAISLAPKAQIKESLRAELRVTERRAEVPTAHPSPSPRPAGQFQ
metric name: koff (s⁻¹)
The reply should contain only the number, in s⁻¹.

The cases that follow already have their koff on record.
>  <binder>
Fab 3 (Fab, V domains shown, Crude Fab from E. coli; also called PD1-BM VH-I97A) VH: EVQLVESGGGLVQPGGSLRLSCAASGFVFSRYDMAWVRQTPGKGLEWVAFISGGGSNTYYPDTVKGRFTISRDNSKNTLYLQMNSLRAEDTAVYYCASPYYYAMEYWGQGTTVTVSS VL: DIQMTQSPSSISTSVGDRVTITCKASQDVDTAVAWYQQKPGKSPKLLIHWASTRHTGVPSRFSGSGSGTDFTLTLSSVQPEDLADYFCQQYSTFPWTFGGGTKLEIK

>  <metric name>
koff

>  <quantity unit>
s⁻¹

>  <number>
0.00035

$$$$
>  <binder>
Fab 6 (Fab, V domains shown, Crude Fab from E. coli; also called PD1-BM VL-T13A) VH: EVQLVESGGGLVQPGGSLRLSCAASGFVFSRYDMAWVRQTPGKGLEWVAFISGGGSNTYYPDTVKGRFTISRDNSKNTLYLQMNSLRAEDTAVYYCISPYYYAMEYWGQGTTVTVSS VL: DIQMTQSPSSISASVGDRVTITCKASQDVDTAVAWYQQKPGKSPKLLIHWASTRHTGVPSRFSGSGSGTDFTLTLSSVQPEDLADYFCQQYSTFPWTFGGGTKLEIK

>  <metric name>
koff

>  <quantity unit>
s⁻¹

>  <number>
9.6e-05

$$$$

Name the reported koff value associated with the binder Fab 5 (Fab, V domains shown, Crude Fab from E. coli; also called PD1-BM VL-I11V) VH: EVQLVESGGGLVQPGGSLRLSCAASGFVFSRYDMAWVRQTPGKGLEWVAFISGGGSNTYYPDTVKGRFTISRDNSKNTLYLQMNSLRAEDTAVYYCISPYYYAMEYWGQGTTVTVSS VL: DIQMTQSPSSVSTSVGDRVTITCKASQDVDTAVAWYQQKPGKSPKLLIHWASTRHTGVPSRFSGSGSGTDFTLTLSSVQPEDLADYFCQQYSTFPWTFGGGTKLEIK
0.00013
